Tested on: influenza A virus (H3N2)
Assay: in vitro antiviral assay (CPE, CCK-8)
Format: cell-based
Settings: MDCK host cells, n=4
metric-name: EC50 (nM)

1. CCC(CC)O[C@@H]1C=C(C(=O)O)C[C@H](N)[C@H]1NC(C)=O    931
